Cited source: PubChem BioAssay (NCATS)

assay: qHTS profiling of the MIPE4 collection as inhibitors of Plasmodium falciparum (3D7) proliferation (AID 743344);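 also: scaled between DMSO vehicle wells and 0.29 µM artemisinin as full inhibition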; details: P. falciparum 3D7 in erythrocytes, SYBR Green DNA fluorescence, 72 h; at 28.5 µM unless noted

{"columns": ["Compound", "parasite growth, % of DMSO control, %"],
 "data": [
  ["COc1cc2nc(N3CCN(C(=O)C4CCCO4)CC3)nc(N)c2cc1OC (stereo unspecified)", 30.8],
  ["CC1=C(C(=O)O)N2C(=O)[C@@H](NC(=O)[C@H](N)C3=CCC=CC3)[C@H]2SC1", 79.3],
  ["O=C(O)c1cccnc1Nc1cccc(C(F)(F)F)c1", 83.9],
  ["Clc1ccc(C(Cn2ccnc2)OCc2ccc(Sc3ccccc3)cc2)c(Cl)c1 (stereo unspecified)", 5.64],
  ["CCN(CC)CCOc1ccc(Nc2ncc3cc(-c4c(Cl)cccc4Cl)c(=O)n(C)c3n2)cc1", 6.09],
  ["CCc1nc(N)nc(N)c1-c1ccc(Cl)cc1", 30.2],
  ["CN(C)C(=O)COC(=O)Cc1ccc(OC(=O)c2ccc(N=C(N)N)cc2)cc1", 75],
  ["Nc1nc(N)c(N=O)c(OCC2CCCCC2)n1", 28],
  ["Cc1ncc([N+](=O)[O-])n1CC(C)O (stereo unspecified)", 94.7],
  ["N=C(N=C(N)N)N1CCOCC1", 106],
  ["Cc1nc(Nc2ncc(C(=O)Nc3c(C)cccc3Cl)s2)cc(N2CCN(CCO)CC2)n1", 13.5]
]}

---

Experiment: qHTS of pediatric cancer cell lines to identify multiple opportunities for drug repurposing: Primary screen for SJ-GBM2 cells (AID 1347091);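 also: plate controls were DMSO neutral control for no effect and bortezomib for full effect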
Settings: SJ-GBM2 viability, CellTiter-Glo luminescence, 48 h; series mostly up to 46 µM
Protocol: Drug repurposing or repositioning has been offered as a strategy for drug development in oncology programs. […] [1] Shen, M et al. Quantitative high-throughput phenotypic screening of pediatric cancer cell lines identifies multiple opportunities for drug repurposing. […] Cells were assayed in growth media at a density of 500-1,000 cells/well. […] After a 15 min incubation at room temperature, samples were analyzed for luminescence intensity using a ViewLux High-throughput CCD imager equipped with clear filters.
Inconclusive results are not listed. The source made the active and inactive calls. The call rests on the fitted dose curve; in most records, active means well fitted cell-killing curve with a large enough effect; inconclusive means small, poorly fitted or top-dose-only effect; inactive means no such curve, though single readings can be large or run the other way.

{"columns": ["Compound", "outcome"],
 "data": [
  ["CN(c1nccc(=O)[nH]1)C1CCN(c2nc3ccccc3n2Cc2ccc(F)cc2)CC1", "inactive"],
  ["Nc1ccn([C@@H]2O[C@H](CO)[C@@H](O)C2O)c(=O)n1 (stereo partly drawn)", "inactive"],
  ["NCCCCNCCCN", "inactive"]
]}

---

assay: Drug repurposing screens with cells derived from glioblastoma tumor samples (AID 1345199); conditions: GBM patient neurospheres viability, ATP luminescence, 48 h; at 46.1 µM (top of the series); tumour line C; also: % is scaled to controls: 0 for no effect and ±100 for the full control effect; nearly all actives have a fitted effect of over 40% in size
Records with an inconclusive call do not appear.
Test readout: activity, negative = cell killing (%)

{"columns": ["Compound", "Measured value"],
 "data": [
  ["CN(C)C(=O)COC(=O)Cc1ccc(OC(=O)c2ccc(N=C(N)N)cc2)cc1", -19.5],
  ["CCOC(=O)C1=C[C@@H](OC(CC)CC)[C@H](NC(C)=O)[C@@H](N)C1", 5.2],
  ["CC(C)[C@H](N)C(=O)OCCOCn1cnc2c(=O)[nH]c(N)nc21", 14.5],
  ["CC(S)C(=O)NCC(=O)O (stereo unspecified)", -4.37],
  ["COC(=O)N[C@H](C(=O)N[C@@H](Cc1ccccc1)[C@@H](O)CN(Cc1ccc(-c2ccccn2)cc1)NC(=O)[C@@H](NC(=O)OC)C(C)(C)C)C(C)(C)C", 8.04],
  ["Cc1cc2c(s1)Nc1ccccc1N=C2N1CCN(C)CC1", -6.39]
]}
